The measured values listed here are drawn from the supplement of paper PMC10567573.

Kindly state protein stability index for each of the entries shown.
B1: PLAGL1 (parent)
chain: LELGSTEVLLDHLKAHAEEKPPSG

- Variants of: B1
- test method notes: protein stability index of a GFP-peptide fusion (GPS, HEK-293T) (PSI 1-6); higher = more stable;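 also: lentivirally expressed fusions sorted by FACS into six bins by GFP to DsRed ratio, PSI derived from sequencing read proportions per bin multiplied by bin number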
- condition set: c terminus: a fixed tail appended
One number for each entry.

Answered cases to consult:
Complete the entry with protein stability index for "L10Q"
5.41

Complete the entry with protein stability index for "S5I"
4.15

Complete the entry with protein stability index for "E7C"
4.27

Can you give me protein stability index for all of these, one by one?
1. E19I
2. L3P
3. P22Y
4. H16F
5. A17V

1. 3.14
2. 5.88
3. 3.9
4. 3.42
5. 3.88

Can you give me protein stability index for all of these, one by one?
1. H12I
2. L10S
3. L3S

3.02
5.42
5.72

Can you give me protein stability index for all of these, one by one?
1. A15P
2. G24D

1: 5.41; 2: 4.91

Can you give me protein stability index for all of these, one by one?
1. V8K
2. G4A

4.51
2.89

Can you give me protein stability index for all of these, one by one?
1. L9G
2. E19A
3. P21G
4. D11G
5. L10W
6. G24I
7. E19H

[5.6, 3.73, 4.45, 3.56, 4.81, 4.07, 3.61]
